FYI, the data here is from paper PMC10620772.

Tested on: SK-MEL-2
test_name: NCI60 antitumor screening
Assay type: cell-based, human
experimental_parameters: 10 μM one-dose
property_label: GI%

Look up GI%: N#Cc1c(-c2ccc(F)cc2)nc(SCc2ccc([N+](=O)[O-])cc2)nc1N1CCOCC1
12.63%

Next entry: Cc1ccc(CSc2nc(Cl)c(C#N)c(-c3ccc(F)cc3)n2)cc1
— (GI% < 10)

Next entry: N#Cc1c(Cl)nc(SCc2ccc([N+](=O)[O-])cc2)nc1-c1ccc(F)cc1
— (GI% < 10)

Next entry: N#Cc1c(Cl)nc(SCc2ccccc2)nc1-c1ccc(F)cc1
— (GI% < 10)

Others:
Look up GI%: N#Cc1c(-c2ccc(F)cc2)nc(SCc2ccc([N+](=O)[O-])cc2)[nH]c1=O
— (GI% < 10)

Next entry: N#Cc1c(-c2ccc(F)cc2)nc(SCc2ccc(F)cc2)[nH]c1=O
— (GI% < 10)

Next entry: N#Cc1c(-c2ccc(F)cc2)nc(SCc2ccc(F)cc2)nc1N1CCOCC1
21.29%

Next entry: Cc1ccc(CSc2nc(-c3ccc(F)cc3)c(C#N)c(N3CCOCC3)n2)cc1
— (GI% < 10)

Next entry: Cc1ccc(CSc2nc(-c3ccc(F)cc3)c(C#N)c(=O)[nH]2)cc1
— (GI% < 10)

Next entry: N#Cc1c(Cl)nc(SCc2ccc(F)cc2)nc1-c1ccc(F)cc1
— (GI% < 10)

Next entry: N#Cc1c(-c2ccc(F)cc2)nc(SCc2ccccc2)nc1N1CCOCC1
— (GI% < 10)
